assay: qHTS assay for small molecule disruptors of the mitochondrial membrane potential - cell viability (AID 720634); details: HepG2 viability, ATP luminescence (CellTiter-Glo), 1 h; series mostly up to 83.2 µM; also: nearly all actives have a fitted effect of over 20% in size
Inconclusive results are not listed. Calls of active or inactive are those of the source. Calls follow the shape of the full dose curve.
Field 'call' accepts T (active), F (inactive)

Query block: So what was the verdict on `CCOCN(C(=O)CCl)c1c(C)cccc1CC` in this test?
Result block: F

Query block: Item: `CCOc1cc(C=O)ccc1O`
Result block: F

Query block: Item: `CC(C)NC(C)C`
Result block: F

Query block: Item: `N#CCCCl`
Result block: F

Query block: Item: `NCc1cccnc1`
Result block: F

Query block: Item: `C1=Cc2cccc3cccc1c23`
Result block: F

Query block: Item: `N#Cc1cc(Br)c(O)c(Br)c1`
Result block: T

Query block: Item: O=c1oc2ccccc2c(O)c1C(CC(O)c1ccc(-c2ccc(Br)cc2)cc1)c1ccccc1 (stereo not drawn)
Result block: T

----------
assay: qHTS assay for small molecule disruptors of the mitochondrial membrane potential (AID 720635); conditions: HepG2 mitochondrial membrane potential, Mito-MPS dye ratio; series mostly up to 83.2 µM
Records with an inconclusive call do not appear. Active and inactive are the calls of the source. The call rests on the fitted dose curve; in most records, active means well fitted inhibition curve with a large enough effect in the signal ratio in the repeat runs; inconclusive means weak or mixed curves, or effect the other way; inactive means flat fitted curve, though single readings scatter; the % refers to the signal ratio.
Field 'call' accepts active, inactive

Query block: So what was the verdict on `COC(=O)c1sccc1S(=O)(=O)NC(=O)Nc1nc(C)nc(OC)n1` in this test?
Result block: inactive

Query block: Item: `Cc1ccccc1[N+](=O)[O-]`
Result block: inactive

Query block: Item: `NCc1cccnc1`
Result block: inactive

Query block: Item: COc1ccc(C(CN(C)C)C2(O)CCCCC2)cc1 (stereo not given)
Result block: inactive

Query block: Item: `CCN(CC)N=O`
Result block: inactive

Query block: Item: `CCCCCCCCOC(=O)c1ccccc1C(=O)OCCCCCCCC`
Result block: inactive

Query block: Item: `N#CC(Br)Br`
Result block: inactive

Query block: Item: `O=C(NC(=O)c1c(F)cccc1F)Nc1ccc(Cl)cc1`
Result block: inactive

Query block: Item: `O=C(O)CC[N+](=O)[O-]`
Result block: inactive

Query block: Item: `Nc1ccc(Cl)c(Cl)c1`
Result block: inactive

Query block: Item: `Cc1ccc(OP(=O)(Oc2ccc(C)cc2)Oc2ccc(C)cc2)cc1`
Result block: active

Query block: Item: `CCCCN(CC)c1c([N+](=O)[O-])cc(C(F)(F)F)cc1[N+](=O)[O-]`
Result block: active

Query block: Item: `CCCCCCOC(=O)c1ccccc1C(=O)OCCCCCC`
Result block: active

Query block: Item: `CC(C)(OOC(C)(C)c1ccccc1)c1ccccc1`
Result block: active

Query block: Item: `CN(C)C(=O)Nc1ccc(Cl)cc1`
Result block: inactive

Query block: Item: `CCCCNC(=O)n1c(NC(=O)OC)nc2ccccc21`
Result block: inactive

Query block: Item: `NNC(=S)NN`
Result block: inactive

Query block: Item: `c1ccc(N=Nc2ccccc2)cc1`
Result block: inactive

Query block: Item: `CCN(CC)C(=O)/C(Cl)=C(\C)OP(=O)(OC)OC`
Result block: inactive

Query block: Item: `c1nc[nH]n1`
Result block: inactive

----------
experiment: qHTS RealTime-Glo MT Cell Viability Assay in HEK293 cells - 32 hour (AID 1224868); conditions: RealTime-Glo luminescence; series mostly up to 76.8 µM; also: nearly all actives have a fitted effect of over 50% in size
Inconclusive results are not listed. Active and inactive are the calls of the source. Calls come from the whole dose curve; as a rule, active = well fitted cell-killing curve with a large enough effect in the repeat runs; inconclusive = weak or mixed curves, or effect the other way; inactive = flat fitted curve, though single readings scatter.
Field 'call' accepts YES for active, NO for inactive

Query block: So what was the verdict on `CC(C)N(C(=O)SCC(Cl)=C(Cl)Cl)C(C)C` in this test?
Result block: NO

Query block: Item: `O=C1C=CC(=O)C=C1`
Result block: NO

Query block: Item: `Cc1c(COC(=O)[C@@H]2[C@H](/C=C(\Cl)C(F)(F)F)C2(C)C)cccc1-c1ccccc1`
Result block: YES

Query block: Item: `O=S(=O)(Oc1ccc(Cl)cc1)c1ccc(Cl)cc1`
Result block: NO

Query block: Item: `CCCCCc1cc(O)cc(O)c1`
Result block: YES

Query block: Item: `CCN(CC)C(=O)/C(Cl)=C(\C)OP(=O)(OC)OC`
Result block: NO

Query block: Item: COc1ccc(C(CN(C)C)C2(O)CCCCC2)cc1 (configuration not stated)
Result block: NO

Query block: Item: `Cc1ccc(OP(=O)(Oc2ccc(C)cc2)Oc2ccc(C)cc2)cc1`
Result block: NO

Query block: Item: `COP(=S)(OC)Oc1cc(Cl)c(Cl)cc1Cl`
Result block: NO

Query block: Item: `Clc1nc(Cl)nc(Cl)n1`
Result block: NO

Query block: Item: `O=P(Oc1ccccc1)(Oc1ccccc1)Oc1ccccc1`
Result block: NO

Query block: Item: CC(O)CCO (configuration not stated)
Result block: NO

Query block: Item: `Nc1ccncc1`
Result block: NO

Query block: Item: `CCCCCCCCC(=O)NCc1ccc(O)c(OC)c1`
Result block: NO

Query block: Item: `Cc1cc(Cl)ccc1OCCCC(=O)O`
Result block: NO

Query block: Item: CC(C)=CC1C(C(=O)OCc2coc(Cc3ccccc3)c2)C1(C)C (configuration not stated)
Result block: NO

Query block: Item: `O=[N+]([O-])c1c(Cl)c(Cl)c(Cl)c(Cl)c1Cl`
Result block: NO

Query block: Item: `CCOc1cc(C=O)ccc1O`
Result block: NO

Query block: Item: O=c1oc2ccccc2c(O)c1C(CC(O)c1ccc(-c2ccc(Br)cc2)cc1)c1ccccc1 (configuration not stated)
Result block: NO

Query block: Item: `CN(C)C(=O)Nc1ccc(Cl)cc1`
Result block: NO

Query block: Item: `CCCCCCCCOC(=O)c1ccccc1C(=O)OCCCCCCCC`
Result block: NO

Query block: Item: `OCC(O)CO`
Result block: NO

Query block: Item: `COC(=O)c1sccc1S(=O)(=O)NC(=O)Nc1nc(C)nc(OC)n1`
Result block: NO

Query block: Item: `CCN(N=O)C(N)=O`
Result block: NO

Query block: Item: `CCOP(=S)(OCC)O/N=C(\C#N)c1ccccc1`
Result block: NO

Query block: Item: `NNC(=S)NN`
Result block: NO

Query block: Item: CC(C)C(=O)OCC(C)(C)C(OC(=O)C(C)C)C(C)C (configuration not stated)
Result block: NO

Query block: Item: `CCCCCCCCCCCOC(=O)c1ccccc1C(=O)OCCCCCCCCCCC`
Result block: NO

Query block: Item: `Nc1cccnc1`
Result block: NO

Query block: Item: `Brc1ccc(Oc2cc(Br)c(Br)cc2Br)c(Br)c1`
Result block: YES

Query block: Item: `CNC(=O)N(C)c1nnc(C(C)(C)C)s1`
Result block: NO

Query block: Item: CC1(C)C(C=C(Cl)Cl)C1C(=O)OC(C#N)c1cccc(Oc2ccccc2)c1 (configuration not stated)
Result block: NO

----------
Target: Voltage-gated inwardly rectifying potassium channel KCNH2 (Homo sapiens) (UniProt Q12809)
Sequence (Q12809 whole entry, looked up): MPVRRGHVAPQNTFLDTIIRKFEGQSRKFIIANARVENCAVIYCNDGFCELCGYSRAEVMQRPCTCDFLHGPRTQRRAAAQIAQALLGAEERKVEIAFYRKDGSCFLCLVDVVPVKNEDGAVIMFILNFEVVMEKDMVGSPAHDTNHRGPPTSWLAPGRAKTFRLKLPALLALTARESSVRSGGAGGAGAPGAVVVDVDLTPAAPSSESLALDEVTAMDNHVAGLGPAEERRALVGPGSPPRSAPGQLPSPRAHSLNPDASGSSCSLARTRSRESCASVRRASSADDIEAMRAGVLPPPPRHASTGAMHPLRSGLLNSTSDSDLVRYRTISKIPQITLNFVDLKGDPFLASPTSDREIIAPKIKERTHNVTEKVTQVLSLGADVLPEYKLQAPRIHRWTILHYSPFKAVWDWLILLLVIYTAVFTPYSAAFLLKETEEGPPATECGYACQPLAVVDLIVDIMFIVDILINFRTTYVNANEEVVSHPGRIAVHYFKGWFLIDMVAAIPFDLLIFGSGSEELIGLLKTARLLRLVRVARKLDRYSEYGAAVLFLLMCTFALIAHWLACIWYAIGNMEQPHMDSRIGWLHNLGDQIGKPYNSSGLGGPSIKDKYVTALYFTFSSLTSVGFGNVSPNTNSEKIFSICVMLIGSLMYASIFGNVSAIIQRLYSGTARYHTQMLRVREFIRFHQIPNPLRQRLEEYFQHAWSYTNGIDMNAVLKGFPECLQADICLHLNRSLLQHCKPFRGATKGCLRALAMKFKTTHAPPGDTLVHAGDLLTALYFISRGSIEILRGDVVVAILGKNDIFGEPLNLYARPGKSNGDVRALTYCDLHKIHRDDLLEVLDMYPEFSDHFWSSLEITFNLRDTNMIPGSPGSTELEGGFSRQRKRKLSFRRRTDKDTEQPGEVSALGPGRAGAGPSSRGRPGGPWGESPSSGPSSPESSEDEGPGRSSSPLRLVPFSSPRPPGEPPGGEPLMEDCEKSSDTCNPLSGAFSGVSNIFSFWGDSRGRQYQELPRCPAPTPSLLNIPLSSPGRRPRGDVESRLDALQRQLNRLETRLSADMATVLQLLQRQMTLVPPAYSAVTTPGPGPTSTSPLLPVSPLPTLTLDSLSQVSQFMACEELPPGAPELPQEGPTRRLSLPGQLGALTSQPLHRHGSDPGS
Assay: Human Ether-a-go-go-Related Gene (hERG) channel small molecule antagonists: fluorescence cell-based qHTS assay (AID 1671200); also: nearly all actives have a fitted effect of over 50% in size
Details: hERG-U2OS cells, FluxOR thallium flux fluorescence; series mostly up to 76.8 µM
Excerpt: National Center for Advancing Translational Sciences [NCATS] U.S. Environmental Protection Agency [EPA] National Institutes of Environmental Health Sciences [NIEHS] National Toxicology Program [NTP] U.S. Food and Drug Administration [FDA] Mutations in the hERG channel cause Long QT (LQT) syndrome. LQT syndrome is a cardiac disorder which can cause ventricle arrhythmia and sudden death. Additionally, compounds which block the hERG channel can cause acquired LQT syndrome. […]
Results filed as inconclusive are left out. Calls of active or inactive are those of the source. Calls follow the shape of the dose curve; as a rule, active = well fitted inhibition curve with a large enough effect in the repeat runs; inconclusive = weak or mixed curves; inactive = flat fitted curve, though single readings scatter.
Field 'call' accepts True = active, False = inactive

Query block: So what was the verdict on `C=CC(=O)OCCO` in this test?
Result block: False

Query block: Item: `Nc1ccc(Cl)c(Cl)c1`
Result block: False

Query block: Item: `CCc1cccc(CC)c1N(COC)C(=O)CCl`
Result block: False

Query block: Item: `Cc1cc(Cl)ccc1OCCCC(=O)O`
Result block: False

Query block: Item: CC(O)CCO (configuration not stated)
Result block: False

Query block: Item: `CC(C)N(C(=O)SCC(Cl)=C(Cl)Cl)C(C)C`
Result block: True

Query block: Item: C=C(C)C(=O)OCC1CO1 (configuration not stated)
Result block: False

Query block: Item: CC(C)C(=O)OCC(C)(C)C(OC(=O)C(C)C)C(C)C (configuration not stated)
Result block: False

Query block: Item: `CCCCCCOC(=O)c1ccccc1C(=O)OCCCCCC`
Result block: False

Query block: Item: `N#CC(Br)Br`
Result block: False

Query block: Item: `COc1ccc(C=O)cc1`
Result block: False

Query block: Item: `CCC(CC)Nc1c([N+](=O)[O-])cc(C)c(C)c1[N+](=O)[O-]`
Result block: False

Query block: Item: `Nc1ccncc1`
Result block: False

Query block: Item: `Nc1cccnc1`
Result block: False

Query block: Item: `CCOc1cc(C=O)ccc1O`
Result block: False

Query block: Item: `C[C@]12CCC(=O)C(O)=C1CC[C@@H]1[C@@H]2CC[C@]2(C)C(=O)CC[C@@H]12`
Result block: False

Query block: Item: `Cc1ccc(N)c(N)c1`
Result block: False

Query block: Item: `O=P(O)(O)CCCl`
Result block: False

Query block: Item: `O=S(=O)(Oc1ccc(Cl)cc1)c1ccc(Cl)cc1`
Result block: True

Query block: Item: `CN(C)C(=O)Nc1ccc(Cl)cc1`
Result block: False

Query block: Item: `CCOP(=S)(OCC)O/N=C(\C#N)c1ccccc1`
Result block: False

Query block: Item: `CC(C)(OOC(C)(C)c1ccccc1)c1ccccc1`
Result block: False

Query block: Item: `Cc1cc(C)cc(C)c1`
Result block: False

Query block: Item: `CCCCNC(=O)n1c(NC(=O)OC)nc2ccccc21`
Result block: False

Query block: Item: `C[C@]12CCC(=O)C[C@@H]1CC[C@@H]1[C@@H]2CC[C@]2(C)[C@@H](O)CC[C@@H]12`
Result block: True

Query block: Item: `O=[N+]([O-])c1c(Cl)c(Cl)c(Cl)c(Cl)c1Cl`
Result block: False

Query block: Item: `Brc1ccc(Oc2cc(Br)c(Br)cc2Br)c(Br)c1`
Result block: False

Query block: Item: `CC(C)(c1cc(Cl)c(O)c(Cl)c1)c1cc(Cl)c(O)c(Cl)c1`
Result block: False

Query block: Item: CC(C)=CC1C(C(=O)OCc2coc(Cc3ccccc3)c2)C1(C)C (configuration not stated)
Result block: False

Query block: Item: `c1ccc(N=Nc2ccccc2)cc1`
Result block: False

Query block: Item: `C=CCN(CC=C)C(=O)C(Cl)Cl`
Result block: False

Query block: Item: `Nc1ccc(-c2ccc(N)c(N)c2)cc1N`
Result block: False

Query block: Item: `CCN(N=O)C(N)=O`
Result block: False

Query block: Item: `CCOCN(C(=O)CCl)c1c(C)cccc1CC`
Result block: False

Query block: Item: `CC(C)(C)c1ccccc1O`
Result block: False

Query block: Item: CCCCC(CC)COC(=O)c1ccc(C(=O)OCC(CC)CCCC)c(C(=O)OCC(CC)CCCC)c1 (configuration not stated)
Result block: False

Query block: Item: `COP(=S)(OC)Oc1cc(Cl)c(Cl)cc1Cl`
Result block: False

Query block: Item: `N#Cc1cc(Br)c(O)c(Br)c1`
Result block: False

Query block: Item: `c1nc[nH]n1`
Result block: False

Query block: Item: CC1(C)C(C=C(Cl)Cl)C1C(=O)OC(C#N)c1cccc(Oc2ccccc2)c1 (configuration not stated)
Result block: False

Query block: Item: `Nn1cnnc1`
Result block: False

Query block: Item: `Clc1nc(Cl)nc(Cl)n1`
Result block: False
